The origin of these recorded values is the supplement of paper PMC10126150.

Let's look at some sequences and their measured switch fluorescence ratio.
Tested on: ATP;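 further: ATP exposure 15 min at 22 °C before imaging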
Test: switch fluorescence ratio, 500 uM ATP over buffer (Cy3 cluster intensity, sum of 5 cycles each) (fold (ratio)); higher = stronger signal-on switching upon ATP binding; sequences stand for … in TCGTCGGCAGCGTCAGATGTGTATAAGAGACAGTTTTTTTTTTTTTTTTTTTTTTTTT…TC
Conditions: aptamer strand: ATP DNA aptamer (quencher-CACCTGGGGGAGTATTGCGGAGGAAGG + anchor), 100 nM annealed; ATP concentration: 500 uM

polymer sequence	switch fluorescence ratio
TTTATTTAGC	1.02
GTTGCTAGTG	0.973
ACATTAATTC	0.996
ATTGGCTGAC	1.13
ACGATCAAGG	1.13
TTATTCAAGG	0.99
TTATTCAGGA	1.01
ATTGTTTTAC	1.02
ATTAAAGTGC	0.999
TGTAAAAGGA	1.01

* * *

Let's look at some sequences and their measured switch fluorescence ratio.
System: ATP;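 further: ATP exposure 15 min at 22 °C before imaging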
Assay: switch fluorescence ratio, 500 uM ATP over buffer (Cy3 cluster intensity, sum of 5 cycles each) (fold (ratio)); higher = stronger signal-on switching upon ATP binding; sequences stand for … in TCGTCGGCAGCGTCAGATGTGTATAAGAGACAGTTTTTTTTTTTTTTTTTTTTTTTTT…TC
Details: aptamer strand: ATP DNA aptamer (quencher-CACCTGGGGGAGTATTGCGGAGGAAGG + anchor), 100 nM annealed; ATP concentration: 500 uM

polymer sequence	assayed target	switch fluorescence ratio
TTTGATACGG	ATP	1
GTATGGGGGC	ATP	0.974
AATCTGTCCT	ATP	1.04
CTGCCAGGTT	ATP	1.15
ATAACTGTAT	ATP	1.12
GGTCGTAAGT	ATP	0.988
ATATGGAGCA	ATP	1.03
TACAAGTTTT	ATP	0.986
ATCGAAGGTA	ATP	0.985
GGTGTGATGG	ATP	0.951
GTGAGAGCAT	ATP	1.05
GGGGTCCTTA	ATP	1
CAACTGCGTG	ATP	0.989
TGTCTCAGAT	ATP	0.979
AAGTAGTCGA	ATP	0.984
AAGATTGGGG	ATP	0.977
TTTAATTGGT	ATP	1.02
TTAGAACACA	ATP	0.983
GTGTATAGAG	ATP	0.99
AAGGGCAGAA	ATP	0.973
TGAGTCTTAA	ATP	1.01
GATTCGTATT	ATP	0.976
AATTAGTTAT	ATP	0.984
GGTAGCAGGG	ATP	1.01
ACAGTGGCAT	ATP	0.997
TTGGGGATAG	ATP	1.11
GGGAAAGCAC	ATP	1.12
CTCACCCGGA	ATP	1.18
CTGGTTAACT	ATP	1.02
TGCGGTCCTG	ATP	1
GCGGTTAGGC	ATP	0.968
TCGGGGGACT	ATP	0.983
CATGTAAGTT	ATP	0.986
GGGGGGGGA	ATP	1.05
TATATCTCCG	ATP	1.12
TATATAAGAA	ATP	1.01
TACAGTGGAG	ATP	1.01
ATCTCCTGCC	ATP	1.48
TTTTATTATC	ATP	0.999
AAGTGATTGG	ATP	0.973
ACATTGGTGG	ATP	0.993
TTTTGGGTAG	ATP	0.984
GTGTTTTCTT	ATP	1.01
AAGGTTGCGA	ATP	0.957
GCACTGTGGC	ATP	0.992
GGGAGGCATG	ATP	0.936
CCAGAGACCG	ATP	1.04
AATTGTTGCT	ATP	0.993
GGGGTTAGCT	ATP	0.987
ACTGTTATAT	ATP	1.04
ATGTCAGGAA	ATP	1.02
GGTTTCTAGA	ATP	0.984
GGTCGGCGTC	ATP	1.01
CGTGTGAGAG	ATP	0.986
GGTCCTCGGG	ATP	1.03
TAGAATCGTT	ATP	0.97
GTATGTAAT	ATP	0.997
AGGGAAGAGA	ATP	1
GAGTTAAGAC	ATP	0.991
TGGTGGAATT	ATP	1.02
CCTTTTCGTG	ATP	1
TGGGTTGACG	ATP	0.998
CGCTTAATTA	ATP	1.01
TTTTCAAGGT	ATP	0.992
GCTATGGGAT	ATP	0.995
GGTTTAGCGG	ATP	0.981
TTGATTAAGA	ATP	1.06
CGGAGGTTTC	ATP	1.02
TCTCGCGGGA	ATP	0.97
TATACGAAAT	ATP	1.49
TGATTTTTTT	ATP	1.01
GGGGTTCACC	ATP	0.957
GCTCAATTGG	ATP	1.02
CACTTCTGAA	ATP	0.987
GAGGTTATTA	ATP	1
GGGGGCTTTT	ATP	1.01
TTGGTTATCT	ATP	1.01
CGACTAGCGA	ATP	1.41
TTTCTGCGGC	ATP	1.05
GGCCAAATCC	ATP	1.01
CGGGAAGGAG	ATP	0.969
CGCGTAGACA	ATP	0.992
TGAGGGGAAG	ATP	0.986
GGCTTTGTCC	ATP	0.991
TGCCCTTTTT	ATP	1.01
ACTGGCGTGC	ATP	1.04
